assay-summary: NCI Yeast Anticancer Drug Screen. Data for the rad14 strain (AID 159)
measurement-context: S. cerevisiae rad14 strain growth inhibition; at 33.0 µM; active compounds read high
The panel holds about 79,000 compounds, 15% with a hit somewhere; the sample as a whole holds those more often. Starred links: 1 amine or outer side, 2 acyl side, 3 side chain; linkers in the order of their positions; H or OH if unused. Positions of bridges follow the written chain, without caps; N, C: chain ends. Non-standard residues stand in square brackets, D forms with d. Residues, ends and D or L forms follow the SMILES beside them. Chains are numbered I, II in the order given. Actinocin(9to1) = Cc1c2oc3c(C)ccc(C(=O)[*:1])c3nc-2c(C(=O)[*:2])c(N)c1=O; aThr = C[C@H](O)[C@H](N)C(=O)O; NMeV = CN[C@H](C(=O)O)C(C)C; Sar = CNCC(=O)O
Think of 20% as a floor: if growth inhibition stands on it or above, it is criterion met; beneath it, criterion not met.

Please check the record O=C(CSS(=O)(=O)O)c1ccccc1 and state if its growth inhibition is at or above 20%.
criterion not met

Determine whether this compound has growth inhibition no lower than 20%: BrC/C=C/C[P+](c1ccccc1)(c1ccccc1)c1ccccc1
criterion met

State whether the measured growth inhibition reaches 20%, counting equality as reaching it, for CNC(=O)OCc1c(COC(=O)NC)c(C)n(-c2ccc(Cl)c(Cl)c2)c1C
criterion met

Exam item: decide whether the reported growth inhibition for c1cc(Nc2ccc3c(c2)OCO3)c2cc(C3CCCCC3)ccc2n1 is at least 20%.
criterion not met

Given the entry O=CC(=C(I)I)c1ccccc1 , answer whether its growth inhibition meets or surpasses 20%.
criterion met

Does the reported growth inhibition for Cc1c2oc3c(C)ccc(C(=O)N[C@@H]4C(=O)N[C@H](C(C)C)C(=O)N5CCC[C@H]5C(=O)N(C)CC(=O)N(C)[C@@H](C(C)C)C(=O)O[C@H]4C)c3nc-2c(C(=O)N[C@@H]2C(=O)N[C@H](C(C)C)C(=O)N3CCC[C@H]3C(=O)N(C)CC(=O)N(C)[C@@H](C(C)C)C(=O)O[C@H]2C)c(N)c1=O (I: [aThr][dV]P[Sar][NMeV] / II: [aThr][dV]P[Sar][NMeV]; ester I:1-I:C, II:1-II:C; linker I:N-II:N via Actinocin(9to1)) fall at or above the 20% mark?
criterion met

Does the compound O=c1[nH]c(=O)n(CCCO)cc1F have recorded growth inhibition that is 20% or more?
criterion not met

====

assay-summary: NCI Yeast Anticancer Drug Screen. Data for the cln2 rad14 strain (AID 165)
measurement-context: S. cerevisiae cln2 rad14 strain, at 50.0 µM
The panel holds about 79,000 compounds, 15% with a hit somewhere; the sample as a whole holds those more often. Active and inactive are the calls of the source. Cut-off read from the data, not from the text of the source: active = growth inhibition above about 70%; inactive = the rest.
Just give me one of these, please: active, inactive

Call for entry c1cc(Nc2ccc3c(c2)OCO3)c2cc(C3CCCCC3)ccc2n1 :
active

Lab log entry: CC[C@]1(O)C[C@H]2CN(CCc3c([nH]c4ccccc34)[C@@](C(=O)OC)(c3cc4c(cc3OC)N(C)[C@H]3[C@@](O)(C(=O)OC)[C@H](OC(C)=O)[C@]5(CC)C=CCN6CC[C@]43[C@@H]65)C2)C1 — outcome as called in the assay?
inactive

Call for entry O=c1oc(C(C(F)(F)F)C(F)(F)F)nc2ccccc12 :
inactive

Could you check what this test reported for CCSc1c2ccccc2c(-c2nc(F)nc(F)n2)n1CCc1ccccc1 ?
active

Tell me the assay call for O=C(O)/C=C\C(=O)NNc1ccc(Br)cc1 please.
active

Hi, sorry to bother you, what did the test record for COc1ccc2c(Cc3c4ccccc4cc4ccccc34)cncc2c1O ?
active

Please share the test call associated with Cc1cccc(N2CCN(C(=O)/C(=C/c3ccccc3)NC(=O)c3ccccc3)CC2)c1 .
inactive

Dear colleague, could you share the recorded outcome for CN(C)N1C(=O)SCC(c2ccccc2)(c2ccccc2)C1=O when you have a moment?
inactive

I'd appreciate the recorded outcome for COc1ccc2nc3cccc([N+](=O)[O-])c3c(NCCCO)c2c1 from this test.
active

Given Cc1c(N=Nc2ccc(Cl)cc2)c(C)n(C2OC(CO)C(O)C(O)C2O)c(=S)c1C#N (stereo not drawn) , state the outcome it received in this test.
inactive

Dear colleague, could you share the recorded outcome for CCCCOc1ccc(Nc2c3ccccc3nc3ccccc23)cc1 when you have a moment?
active

Just curious, what result did Nc1ccc2cc(Br)c3ccccc3c2c1 get here?
inactive

Which result was noted for this compound in the test: CCC(C)C(=O)OCC(=O)c1ccc(-c2ccccc2)cc1 (stereo not drawn)
inactive

How was COC(=O)C1(N2CCOCC2)CCC([C@@H](c2ccccc2)C(C)[N+](=O)[O-])C1 (stereo partly drawn) classified in this test?
inactive

Outcome? CCC1SC(=S)N(c2ccc(Cl)cc2)C1=O (stereo not drawn)
inactive

Hi team, can someone confirm the assay call for O=c1c(Br)cc2c(-c3ccccc3)c3cc(Br)c(O)c(Br)c3oc-2c1Br ?
inactive

Recorded test call requested for Nc1ccc2ncc(Nc3ccc(Cl)c(Cl)c3)nc2c1
active

Hey, what did the test say about CCN(CC)c1ccc(N=Nc2cc(S(=O)(=O)O)ccc2O)c(O)c1 ?
inactive

Lab log entry: c1cncc(C(Nc2cccc3cccnc23)Nc2cccc3cccnc23)c1 — outcome as called in the assay?
inactive

# fetch the recorded call for BrC/C=C/C[P+](c1ccccc1)(c1ccccc1)c1ccccc1 here
active

Please share the test call associated with O=C(CSS(=O)(=O)O)c1ccccc1 .
inactive

Please state the recorded outcome for this compound: Cc1cnccc1N=Nc1ccc(N(C)C)cc1
inactive

In this assay, the call recorded for CCCCCCCCCCCCCCCCOCC(Cl)COP(=O)(O)OP(=O)(O)OCC1OC(n2cnc3c(N)ncnc32)C(O)C1O (stereo not drawn) was what?
inactive

Each compound tested received a call. Report the one for O=[N+]([O-])c1ccc2nnnn2c1 .
inactive

For CN(C)CCNC(=O)c1cccc2nc3c(ccc4ccccc43)nc12 , which call appears in the assay record?
inactive

I'd appreciate the recorded outcome for Cc1cc(NCCCN(C)C)c2ccc3c(ccc4c(NCCCN(C)C)cc(C)nc43)c2n1 from this test.
inactive

Given c1ccc2cc(OCC3CO3)c(OCC3CO3)cc2c1 (stereo not drawn) , state the outcome it received in this test.
inactive

What is the recorded call for this compound in the test? c1ccc(N/N=C2\CC(c3ccccc3)Oc3ccccc32)cc1 (stereo not drawn)
inactive

// outcome(item) with item = Cc1nc2ccc(NCCN(C)C)c3c(=O)c4ccccc4n1c23
inactive

What outcome does the record of this test show for CCOC(=O)c1sc2[n+](c1C)C(=O)/C(=C/c1cc(OC)c(OC)c(OC)c1)S2 ?
inactive

I'd appreciate the recorded outcome for CN(Cc1cccc2ccccc12)Cc1cccc2ccccc12 from this test.
inactive

Dear colleague, could you share the recorded outcome for Nc1nc(Nc2ccccc2)nc(Nc2ccccc2)n1 when you have a moment?
active

What call does the record list for S=c1[nH]nc(Cc2ccccc2)c(=S)[nH]1 ?
inactive

Kindly provide the recorded test outcome for the following compound: O=[N+]([O-])C(=C(NCc1ccccc1)NCc1ccccc1)C(Cl)=C(Cl)Cl
inactive

How was C[n+]1c(-c2ccc(NC(=O)c3ccc(C(=O)Nc4ccc(-c5cn6ccccc6[n+]5C)cc4)cc3)cc2)cn2ccccc21 classified in this test?
inactive

Which outcome was entered for the compound O=C1OC(c2ccc(Cl)cc2)Sc2ccccc21 (stereo not drawn) in this test?
inactive

Which outcome was assigned to c1cc2ccc3cc4ncccc4c4ccc(c1)c2c34 in this test?
active

Hello, I am checking results. What call was entered for Cc1ccnc(NS(=O)(=O)c2ccc(Nc3c4ccccc4nc4ccccc34)cc2)n1 ?
inactive

Which outcome did this test record for the compound O=C1C(C(O)(C(F)(F)F)C(F)(F)F)CCC1C(O)(C(F)(F)F)C(F)(F)F (stereo not drawn) ?
inactive

# fetch the recorded call for O=C1C=CC(=Nc2ccc3c(c2)Cc2cc(Cl)ccc2-3)O1 here
active

Assay result, entry CN1CCN(c2ccc3nc(-c4ccc5nc(-c6ccc(O)cc6)[nH]c5c4)[nH]c3c2)CC1 — outcome?
active

Entry CC1=NN(C(=O)CC(=O)N(C(=O)c2ccccc2)c2ccc(Cl)cc2)C(=O)C1N=Nc1ccc([N+](=O)[O-])cc1 (stereo not drawn) : call = ?
inactive

What call does the record list for Cc1c2ccncc2c(C)c2c1oc1ccccc12 ?
active
